- EXPERIMENTAL_TARGET: Sodium channel protein type 2 subunit alpha (Homo sapiens, UniProt Q99250)
- Sequence (Q99250 whole entry): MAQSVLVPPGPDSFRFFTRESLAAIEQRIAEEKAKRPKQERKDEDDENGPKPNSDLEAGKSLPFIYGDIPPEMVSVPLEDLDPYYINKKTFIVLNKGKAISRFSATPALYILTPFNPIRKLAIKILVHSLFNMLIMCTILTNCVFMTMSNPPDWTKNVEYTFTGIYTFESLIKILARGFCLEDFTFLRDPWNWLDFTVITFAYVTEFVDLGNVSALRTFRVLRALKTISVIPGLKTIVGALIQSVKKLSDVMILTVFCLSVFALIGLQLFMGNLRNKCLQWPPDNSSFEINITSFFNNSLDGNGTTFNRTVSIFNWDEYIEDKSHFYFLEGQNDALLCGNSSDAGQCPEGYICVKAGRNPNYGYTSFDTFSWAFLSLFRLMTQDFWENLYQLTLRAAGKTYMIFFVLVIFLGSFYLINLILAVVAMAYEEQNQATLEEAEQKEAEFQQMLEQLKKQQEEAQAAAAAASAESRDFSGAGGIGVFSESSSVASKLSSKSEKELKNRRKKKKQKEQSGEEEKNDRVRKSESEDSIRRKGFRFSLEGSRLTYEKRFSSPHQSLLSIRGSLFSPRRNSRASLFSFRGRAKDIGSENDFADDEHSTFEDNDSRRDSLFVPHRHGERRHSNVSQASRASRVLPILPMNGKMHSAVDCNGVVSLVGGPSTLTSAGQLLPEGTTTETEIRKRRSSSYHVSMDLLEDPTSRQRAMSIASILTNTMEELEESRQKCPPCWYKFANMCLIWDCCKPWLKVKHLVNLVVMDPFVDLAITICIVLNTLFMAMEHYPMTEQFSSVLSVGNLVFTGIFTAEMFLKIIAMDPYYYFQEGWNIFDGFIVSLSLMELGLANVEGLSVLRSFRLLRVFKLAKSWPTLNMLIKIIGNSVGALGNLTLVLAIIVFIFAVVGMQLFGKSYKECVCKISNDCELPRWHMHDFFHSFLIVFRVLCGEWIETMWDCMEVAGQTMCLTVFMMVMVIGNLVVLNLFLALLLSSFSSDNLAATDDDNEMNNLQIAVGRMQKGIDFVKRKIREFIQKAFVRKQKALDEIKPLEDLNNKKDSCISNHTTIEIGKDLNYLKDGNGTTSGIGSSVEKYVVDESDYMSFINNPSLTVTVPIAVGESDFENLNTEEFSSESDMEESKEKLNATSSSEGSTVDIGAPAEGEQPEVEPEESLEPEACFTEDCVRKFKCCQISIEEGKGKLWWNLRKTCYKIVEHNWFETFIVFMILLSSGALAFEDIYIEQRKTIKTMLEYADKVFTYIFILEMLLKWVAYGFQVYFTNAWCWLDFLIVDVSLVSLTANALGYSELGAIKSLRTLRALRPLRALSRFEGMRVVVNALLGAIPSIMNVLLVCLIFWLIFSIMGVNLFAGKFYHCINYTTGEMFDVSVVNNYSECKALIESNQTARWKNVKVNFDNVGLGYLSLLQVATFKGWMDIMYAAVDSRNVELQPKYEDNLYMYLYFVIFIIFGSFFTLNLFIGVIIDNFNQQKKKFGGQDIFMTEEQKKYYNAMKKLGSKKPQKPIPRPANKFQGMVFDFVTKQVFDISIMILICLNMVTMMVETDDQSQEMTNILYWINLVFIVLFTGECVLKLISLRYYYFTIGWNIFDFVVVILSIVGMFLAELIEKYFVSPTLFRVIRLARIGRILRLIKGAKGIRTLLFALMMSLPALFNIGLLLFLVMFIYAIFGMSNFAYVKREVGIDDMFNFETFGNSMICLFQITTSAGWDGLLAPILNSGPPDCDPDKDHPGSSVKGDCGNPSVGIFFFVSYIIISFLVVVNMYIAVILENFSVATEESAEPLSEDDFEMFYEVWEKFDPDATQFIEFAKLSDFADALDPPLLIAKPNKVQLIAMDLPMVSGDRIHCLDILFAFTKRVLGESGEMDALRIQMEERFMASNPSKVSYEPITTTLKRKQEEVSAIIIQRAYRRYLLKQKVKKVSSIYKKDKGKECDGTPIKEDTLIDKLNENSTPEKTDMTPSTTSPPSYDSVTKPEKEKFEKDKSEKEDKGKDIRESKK
- EXPERIMENTAL_PROTOCOL: Binding affinity to human recombinant Nav1.2 by radioligand binding assay
So I've got a bunch of molecules here, and I need their Kd values.
Numbers only, in nM.

CS(=O)(=O)NC(=O)c1cc(C2CC2)c(OCC2CCN(Cc3cc(C(F)(F)F)ccc3Cl)CC2)cc1F = 64

Next item in the queue.
So what does the record say about Kd for Cc1nn([C@@H]2CCN([C@H](C)c3cc(Cl)cc(Cl)c3)C2)c2cc(F)c(C(=O)NS(=O)(=O)C3CC3)cc12 ?
140
